Record form. Attribute: viability, T/C. Fill in for each entry.
- Tested on: NCI-H1341 complex spheroids, percent test/control
- EXPERIMENTAL_PROTOCOL: Anticancer human tumor NCI-H1341 cell line growth inhibition [AhR];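 note: spheroids exposed to agents for seven days before readout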
- TEST_PARAMETERS: second compound 0.316 µM; first compound 0.0316 µM; hits give low values
Reply with just the number (in %).

What measured viability, T/C goes with CC1COCCN1c1cc(-c2ccnn2C)c2ccnc(-c3ccn[nH]3)c2n1 (stereo not given) + Cc1cncc(-c2nc(NCCc3c[nH]c4ccccc34)c3ncn(C(C)C)c3n2)c1 ?
49.8

What measured viability, T/C goes with CC1(C)CCC(CN2CCN(c3ccc(C(=O)NS(=O)(=O)c4ccc(NCC5CCOCC5)c([N+](=O)[O-])c4)c(Oc4cnc5[nH]ccc5c4)c3)CC2)=C(c2ccc(Cl)cc2)C1 + Cc1cncc(-c2nc(NCCc3c[nH]c4ccccc34)c3ncn(C(C)C)c3n2)c1 ?
86.6

What measured viability, T/C goes with Nc1ccccc1NC(=O)c1ccc(CNC(=O)OCc2cccnc2)cc1 + Cc1ccccc1N=Nc1ccc(NC(=O)c2ccnn2C)c(C)c1 ?
89.9

What measured viability, T/C goes with CC1(C)CCC(CN2CCN(c3ccc(C(=O)NS(=O)(=O)c4ccc(NCC5CCOCC5)c([N+](=O)[O-])c4)c(Oc4cnc5[nH]ccc5c4)c3)CC2)=C(c2ccc(Cl)cc2)C1 + CC(CO)NC(=O)c1cc(-c2ccc(Cl)cc2)nn(-c2cnn(C)c2)c1=O ?
76.7

What measured viability, T/C goes with Nc1ncn(C2CC(O)C(CO)O2)c(=O)n1 (stereo not given) + CC(CO)NC(=O)c1cc(-c2ccc(Cl)cc2)nn(-c2cnn(C)c2)c1=O ?
85.2

These data points were gathered from PubChem BioAssay AID1919014.
